Record form. Attribute: Percent Effect. Fill in for each entry.
Molecular target: Shiga toxin 2 (Escherichia coli O157:H7) (UniProt P09385+P09386)
Assay: E. coli 0.157:H7 Shiga Toxin SOP - stx2 screening assay
Format: functional
Parameters: scale not given: direction of the effect not stated beside the values
Conditions: 30 µM
Respond numerically; units are % and should not be typed.

Requested field: Percent Effect. Item: CN(C)C(=O)CN1CCCCC1c1nc(N)ncc1-c1ccccc1 (stereo unspecified)
1.46

Requested field: Percent Effect. Item: COCC(=O)NCCn1ccc2c(OC)cccc21
-26.2

Requested field: Percent Effect. Item: Cn1c(Cn2cccn2)nnc1C1CCCN(c2ccncc2F)C1 (stereo unspecified)
-2.56

Requested field: Percent Effect. Item: CC(NC(=O)NCCCN(C)S(C)(=O)=O)c1ccncc1 (stereo unspecified)
-9.54

Requested field: Percent Effect. Item: Cc1cc2c(=O)n3c(nc2s1)CCN(C(=O)c1ccncc1)CC3
3.16

Requested field: Percent Effect. Item: CCN(CCn1cccn1)Cc1nc(-c2ccccc2F)oc1C
-3.06

Requested field: Percent Effect. Item: COc1ccc(C(=O)NS(=O)(=O)c2cncc(Br)c2)cc1OC
3.4

Requested field: Percent Effect. Item: COCc1cn([C@@H]2c3ccccc3C3(CCNCC3)[C@H]2O)nn1
8.95

Requested field: Percent Effect. Item: O=C(c1cccs1)N1C[C@H]2CC[C@@]3(N=C(c4ccccc4)NC3=O)[C@H]2C1
-42.8

Requested field: Percent Effect. Item: CCNC(=O)c1ncn2c1CN(C)S(=O)(=O)c1ccccc1-2
-5.52

Requested field: Percent Effect. Item: c1cnc(-c2nc(CNCCn3cccn3)cs2)nc1
5.58

---

Biological target: Shiga toxin 2 (Escherichia coli O157:H7) (UniProt P09385+P09386)
Test: E. coli 0.157:H7 Shiga Toxin SOP - stx2 screening assay
Type: functional
Set-up: scale not given: direction of the effect not stated beside the values
Details: 30 µM
Parameter: Percent Effect (%)
Respond numerically; units are % and should not be typed.

What value of Percent Effect on Shiga toxin 2 (Escherichia coli O157:H7) (UniProt P09385+P09386) does CC1Cc2ccccc2N1Cc1occc1C(=O)OCC(N)=O (stereo not drawn) have?
-1.38

What value of Percent Effect on Shiga toxin 2 (Escherichia coli O157:H7) (UniProt P09385+P09386) does COCC(c1cccc(C(F)(F)F)c1)N(C)C(=O)c1cc(C)no1 (stereo not drawn) have?
27.2

What value of Percent Effect on Shiga toxin 2 (Escherichia coli O157:H7) (UniProt P09385+P09386) does Cc1cc(CN(C)C(=O)C2CCCN(C(=O)c3ccc(Cl)cc3)C2)no1 (stereo not drawn) have?
-26.7

What value of Percent Effect on Shiga toxin 2 (Escherichia coli O157:H7) (UniProt P09385+P09386) does Cc1cnn(CC2CCCCN2C(=O)c2ccc3nnc(C)n3c2)c1 (stereo not drawn) have?
21.9

What value of Percent Effect on Shiga toxin 2 (Escherichia coli O157:H7) (UniProt P09385+P09386) does CN(Cc1ccsc1)C(=O)CN1CCOC(Cn2cccn2)C1 (stereo not drawn) have?
-18.6

What value of Percent Effect on Shiga toxin 2 (Escherichia coli O157:H7) (UniProt P09385+P09386) does CCCC(Nc1c(C#N)c(=O)n(C)c(=O)n1C)c1ccc(F)cc1F (stereo not drawn) have?
4.48

What value of Percent Effect on Shiga toxin 2 (Escherichia coli O157:H7) (UniProt P09385+P09386) does COc1ccc(Cl)cc1C(=O)N1CCCC(n2nc(C)nc2C)C1 (stereo not drawn) have?
7.05

What value of Percent Effect on Shiga toxin 2 (Escherichia coli O157:H7) (UniProt P09385+P09386) does CCN1CCN(c2ccc(CNC(=O)c3ccc(Cl)o3)cn2)CC1 have?
-41.7

What value of Percent Effect on Shiga toxin 2 (Escherichia coli O157:H7) (UniProt P09385+P09386) does CCc1nnc2n1CCN(C(=O)CN(C)Cc1ccccc1)C2 have?
15.9

What value of Percent Effect on Shiga toxin 2 (Escherichia coli O157:H7) (UniProt P09385+P09386) does CCOCCn1nc(C)cc1C(=O)N1CCN(C(C)C)C(CC)C1 (stereo not drawn) have?
10.1

What value of Percent Effect on Shiga toxin 2 (Escherichia coli O157:H7) (UniProt P09385+P09386) does Cc1nc(-c2ccsc2)ccc1C(=O)O have?
-2.78

What value of Percent Effect on Shiga toxin 2 (Escherichia coli O157:H7) (UniProt P09385+P09386) does CN(C)C(=O)Cc1ccc(NC(=O)NC2CCCCC2)cc1 have?
1.55

What value of Percent Effect on Shiga toxin 2 (Escherichia coli O157:H7) (UniProt P09385+P09386) does COCCCN1CCCN(C(C)C(=O)Nc2ccnn2C(C)C)CC1 (stereo not drawn) have?
11.2

What value of Percent Effect on Shiga toxin 2 (Escherichia coli O157:H7) (UniProt P09385+P09386) does COC(=O)C(NC(=O)C(C)C)c1cc(F)ccc1F (stereo not drawn) have?
15.2

What value of Percent Effect on Shiga toxin 2 (Escherichia coli O157:H7) (UniProt P09385+P09386) does Cc1cccc(NC(=O)NCCCn2nc3ccccn3c2=O)c1C have?
19.3

What value of Percent Effect on Shiga toxin 2 (Escherichia coli O157:H7) (UniProt P09385+P09386) does Cc1nc(C)n(CC2CCCCN2Cc2nnc(C3CC3)o2)n1 (stereo not drawn) have?
-4.29

What value of Percent Effect on Shiga toxin 2 (Escherichia coli O157:H7) (UniProt P09385+P09386) does CCOC(C)c1nc(CN2CCN(c3nccc(C)n3)CC2)cs1 (stereo not drawn) have?
-1.8

What value of Percent Effect on Shiga toxin 2 (Escherichia coli O157:H7) (UniProt P09385+P09386) does CCc1ccc(CNC(=O)N2CCN(Cc3cc(C)no3)CC2)s1 have?
27

What value of Percent Effect on Shiga toxin 2 (Escherichia coli O157:H7) (UniProt P09385+P09386) does O=C(NCCCO)Nc1cccc(Cl)c1F have?
-9.57

What value of Percent Effect on Shiga toxin 2 (Escherichia coli O157:H7) (UniProt P09385+P09386) does CC1CN(C(=O)c2ccn(-c3cccc(Cl)c3)n2)CCO1 (stereo not drawn) have?
-15

What value of Percent Effect on Shiga toxin 2 (Escherichia coli O157:H7) (UniProt P09385+P09386) does CCC(=O)N1CCC2(COCc3c(C)nc(N(C)C)nc32)C1 (stereo not drawn) have?
-30.5

What value of Percent Effect on Shiga toxin 2 (Escherichia coli O157:H7) (UniProt P09385+P09386) does CS(=O)(=O)NC1CCCN(C(=O)NCc2cc[nH]n2)C1 (stereo not drawn) have?
2.05

What value of Percent Effect on Shiga toxin 2 (Escherichia coli O157:H7) (UniProt P09385+P09386) does CN1CC(=O)N(c2ccsc2)CC12CCN(C(=O)c1ccccc1)C2 (stereo not drawn) have?
-3.66

What value of Percent Effect on Shiga toxin 2 (Escherichia coli O157:H7) (UniProt P09385+P09386) does CCc1ccc(C(=O)Nc2ccc(CC3CC(=O)NC3=O)cc2)cc1 (stereo not drawn) have?
-36.3

What value of Percent Effect on Shiga toxin 2 (Escherichia coli O157:H7) (UniProt P09385+P09386) does Cn1cccc1CNC(=O)N(CCO)C1CCCc2ccccc21 (stereo not drawn) have?
-4.96

What value of Percent Effect on Shiga toxin 2 (Escherichia coli O157:H7) (UniProt P09385+P09386) does O=C(NCCCOCC1CCCO1)c1cccnc1N1CCCC1 (stereo not drawn) have?
-14.1

What value of Percent Effect on Shiga toxin 2 (Escherichia coli O157:H7) (UniProt P09385+P09386) does COc1ncccc1NC(=O)c1cccc(C)n1 have?
-22.7

What value of Percent Effect on Shiga toxin 2 (Escherichia coli O157:H7) (UniProt P09385+P09386) does O=C(O)C1(Cc2cc(-c3ccc(F)cc3F)no2)CCOCC1 have?
-13.5

What value of Percent Effect on Shiga toxin 2 (Escherichia coli O157:H7) (UniProt P09385+P09386) does COCCCNc1nccc(-c2c[nH][nH]c2=O)n1 have?
-55.9

What value of Percent Effect on Shiga toxin 2 (Escherichia coli O157:H7) (UniProt P09385+P09386) does c1nc2n(n1)CC(NCc1csc(-c3ccsc3)n1)CC2 (stereo not drawn) have?
-23.2

What value of Percent Effect on Shiga toxin 2 (Escherichia coli O157:H7) (UniProt P09385+P09386) does CCn1ncnc1C(C)NC(=O)C1CCN(C(C)C)CC1 (stereo not drawn) have?
-16.7

What value of Percent Effect on Shiga toxin 2 (Escherichia coli O157:H7) (UniProt P09385+P09386) does CCN1CCN(C2CCN(Cc3ncc(C(C)(C)C)o3)CC2)C1=O have?
6.2

What value of Percent Effect on Shiga toxin 2 (Escherichia coli O157:H7) (UniProt P09385+P09386) does Cc1nc(C)n(C2CCCN(C(=O)Cc3cccnc3)C2)n1 (stereo not drawn) have?
1.27

What value of Percent Effect on Shiga toxin 2 (Escherichia coli O157:H7) (UniProt P09385+P09386) does Cc1[nH]ccc1C(=O)Nc1cccc(CN2CCC(CO)CC2)c1 have?
-43.9

What value of Percent Effect on Shiga toxin 2 (Escherichia coli O157:H7) (UniProt P09385+P09386) does COc1cc(C(=O)Nc2c(C)noc2C)ccc1C have?
-5.89

What value of Percent Effect on Shiga toxin 2 (Escherichia coli O157:H7) (UniProt P09385+P09386) does Cc1ccc(N2CC[C@H](OCC3CC3)[C@@H]2Cc2cnn(C)c2)nn1 have?
-6.34

What value of Percent Effect on Shiga toxin 2 (Escherichia coli O157:H7) (UniProt P09385+P09386) does Cc1n[nH]c(=O)c2c(NC(=O)CN3CCCC(C(F)(F)F)C3)oc(C)c12 (stereo not drawn) have?
-52.6

What value of Percent Effect on Shiga toxin 2 (Escherichia coli O157:H7) (UniProt P09385+P09386) does Cc1cncc(C2CCCN(C(=O)c3c[nH]c(=O)[nH]c3=O)C2)n1 (stereo not drawn) have?
26.6

What value of Percent Effect on Shiga toxin 2 (Escherichia coli O157:H7) (UniProt P09385+P09386) does COc1ccccc1NC(=O)NCC(O)(c1ccccc1)C1CC1 (stereo not drawn) have?
-12.2

What value of Percent Effect on Shiga toxin 2 (Escherichia coli O157:H7) (UniProt P09385+P09386) does O=C(NCC(F)(F)F)C1CSCN1S(=O)(=O)c1ccc(F)cc1 (stereo not drawn) have?
-29.9

What value of Percent Effect on Shiga toxin 2 (Escherichia coli O157:H7) (UniProt P09385+P09386) does CCC(=O)N1CCCC(c2cc(Nc3ncccn3)nc(C)n2)C1 (stereo not drawn) have?
12.4

What value of Percent Effect on Shiga toxin 2 (Escherichia coli O157:H7) (UniProt P09385+P09386) does Cc1cc(N2CCCCCC2)n2nc(C)c(C)c2n1 have?
19.6

What value of Percent Effect on Shiga toxin 2 (Escherichia coli O157:H7) (UniProt P09385+P09386) does Cc1n[nH]c(C)c1-c1cnc(CC2CCN(C)C2)cn1 (stereo not drawn) have?
-18.2

What value of Percent Effect on Shiga toxin 2 (Escherichia coli O157:H7) (UniProt P09385+P09386) does COc1cc(CNCc2ccc(NC(=O)NC(C)C)cc2)cc(OC)c1 have?
-65.1

What value of Percent Effect on Shiga toxin 2 (Escherichia coli O157:H7) (UniProt P09385+P09386) does CCN1CC2(CC1=O)CN(C(C)=O)CCN(C(=O)c1ccco1)C2 (stereo not drawn) have?
-35.2

What value of Percent Effect on Shiga toxin 2 (Escherichia coli O157:H7) (UniProt P09385+P09386) does O=S(=O)(c1cccs1)N1CCCn2nnc(CN3CCCCC3)c2C1 have?
-16.9

What value of Percent Effect on Shiga toxin 2 (Escherichia coli O157:H7) (UniProt P09385+P09386) does O=C1CC(c2cccnc2)C2(CCN(C(=O)c3ccncc3)CC2)N1 (stereo not drawn) have?
7.39

What value of Percent Effect on Shiga toxin 2 (Escherichia coli O157:H7) (UniProt P09385+P09386) does Cn1ncc2c1C(COCC1CC1)CN(Cc1ccc(F)cc1)C2 (stereo not drawn) have?
-5.43
